Quick note: these are Average cell viability, BEAS-2B numbers for system: human bronchial epithelial cells (BEAS-2B)
Ends that are not written are not given here.
MEASUREMENT_LABEL: Average cell viability, BEAS-2B

[[record]]
substance = "YAGNAP [TaPep10]"
system = "human bronchial epithelial cells (BEAS-2B)"
result_value = 98.84

[[record]]
substance = "DQEPVE [TaPep44]"
system = "human bronchial epithelial cells (BEAS-2B)"
result_value = 101.53

[[record]]
substance = "FPEQQD [TaPep16]"
system = "human bronchial epithelial cells (BEAS-2B)"
result_value = 95.65

[[record]]
substance = "AQDDLP [TaPep20]"
system = "human bronchial epithelial cells (BEAS-2B)"
result_value = 101.76

[[record]]
substance = "HGGDDLG [TaPep28]"
system = "human bronchial epithelial cells (BEAS-2B)"
result_value = 108.84

[[record]]
substance = "EFPEQN [TaPep17]"
system = "human bronchial epithelial cells (BEAS-2B)"
result_value = 109.94

[[record]]
substance = "KGYEAV [TaPep5]"
system = "human bronchial epithelial cells (BEAS-2B)"
result_value = 113.59


###

assay: Electronic tongue analysis (Taste-Sensing System SA 402B); design: unit not given here; conditions: sensor GL1, peptide 1 mg/mL, reference solution 30 mM KCl + 0.3 mM tartaric acid as baseline, detection threshold 0, room temperature, measured five times, first measurement excluded
Ends that are not written are not given here.
MEASUREMENT_LABEL: Sweet

[[record]]
substance = "KGYEAV [TaPep5]"
result_value = -5.63

[[record]]
substance = "FEGDQDA [TaPep18]"
result_value = -5.91

[[record]]
substance = "KADGNR [TaPep4]"
result_value = -5.50

[[record]]
substance = "STGTIR [TaPep51]"
result_value = -1.16

[[record]]
substance = "AQDDLP [TaPep20]"
result_value = -4.17


###

Quick note: these are Cell viability, HUVEC, Data2 numbers for system: human umbilical vein endothelial cells (HUVEC)
Ends that are not written are not given here.
MEASUREMENT_LABEL: Cell viability, HUVEC, Data2

[[record]]
substance = "VARLEA [TaPep9]"
result_value = 102.50

[[record]]
substance = "DFKEELPK [TaPep42]"
result_value = 97.95

[[record]]
substance = "EPKVLV [TaPep54]"
result_value = 114.72

[[record]]
substance = "EVGMQE [TaPep56]"
result_value = 108.89

[[record]]
substance = "AQDDLP [TaPep20]"
result_value = 106.73

[[record]]
substance = "EQGEQN [TaPep15]"
result_value = 104.26

[[record]]
substance = "AKDEKEL [TaPep1]"
result_value = 94.60

[[record]]
substance = "HGGDDLG [TaPep28]"
result_value = 106.73

[[record]]
substance = "SVLEFS [TaPep52]"
result_value = 88.93

[[record]]
substance = "TIDDELR [TaPep26]"
result_value = 102.74

[[record]]
substance = "EDGPHGD [TaPep45]"
result_value = 90.77

[[record]]
substance = "YQAENKH [TaPep14]"
result_value = 90.29

[[record]]
substance = "VPDELN [TaPep23]"
result_value = 95.72

[[record]]
substance = "DQEPVE [TaPep44]"
result_value = 112.00

[[record]]
substance = "SLEYEFK [TaPep38]"
result_value = 110.32

[[record]]
substance = "FEGDQDA [TaPep18]"
result_value = 114.64

[[record]]
substance = "APEELDA [TaPep36]"
result_value = 95.80

[[record]]
substance = "AEDNSL [TaPep43]"
result_value = 115.43

[[record]]
substance = "YAGNAP [TaPep10]"
result_value = 104.50


###

Ends that are not written are not given here.
Quick note: these are Cell viability, HEK293T, Data3 numbers for system: human embryonic kidney cells (HEK293T)
MEASUREMENT_LABEL: Cell viability, HEK293T, Data3

[[record]]
substance = "SLEYLP [TaPep35]"
measurement_label = "Cell viability, HEK293T, Data3"
result_value = 97.29

[[record]]
substance = "EFPEQN [TaPep17]"
measurement_label = "Cell viability, HEK293T, Data3"
result_value = 98.61

[[record]]
substance = "TQEVVN [TaPep25]"
measurement_label = "Cell viability, HEK293T, Data3"
result_value = 98.90


###

test: Electronic tongue analysis (Taste-Sensing System SA 402B); design: unit not given here; conditions: sensor CT0, peptide 1 mg/mL, reference solution 30 mM KCl + 0.3 mM tartaric acid as baseline, detection threshold -6, room temperature, four replicates, first measurement excluded
Ends that are not written are not given here.
# Salty annotations
MEASUREMENT_LABEL: Salty

[[record]]
substance = "FPEQQD [TaPep16]"
measurement_label = "Salty"
result_value = 7.92

[[record]]
substance = "LWGPVT [TaPep72]"
measurement_label = "Salty"
result_value = 7.83

[[record]]
substance = "AQSSLS [TaPep40]"
measurement_label = "Salty"
result_value = 10.09

[[record]]
substance = "FEGDQDA [TaPep18]"
measurement_label = "Salty"
result_value = 7.99

[[record]]
substance = "KGYEAV [TaPep5]"
measurement_label = "Salty"
result_value = 14.26

[[record]]
substance = "DQEPVE [TaPep44]"
measurement_label = "Salty"
result_value = 10.03

[[record]]
substance = "EPKVLV [TaPep54]"
measurement_label = "Salty"
result_value = 10.59

[[record]]
substance = "NNDDEES [TaPep50]"
measurement_label = "Salty"
result_value = 3.54

[[record]]
substance = "IAVPHEP [TaPep47]"
measurement_label = "Salty"
result_value = 9.73

[[record]]
substance = "TIDDELR [TaPep26]"
measurement_label = "Salty"
result_value = 8.38

[[record]]
substance = "PPLENT [TaPep39]"
measurement_label = "Salty"
result_value = 12.96

[[record]]
substance = "EQGEQN [TaPep15]"
measurement_label = "Salty"
result_value = 2.97

[[record]]
substance = "TAEQVA [TaPep33]"
measurement_label = "Salty"
result_value = 10.92

[[record]]
substance = "AQDDLP [TaPep20]"
measurement_label = "Salty"
result_value = 6.62

[[record]]
substance = "SLEYLP [TaPep35]"
measurement_label = "Salty"
result_value = 10.87

[[record]]
substance = "VARLEA [TaPep9]"
measurement_label = "Salty"
result_value = 12.49

[[record]]
substance = "LQPSLEH [TaPep59]"
measurement_label = "Salty"
result_value = 15.85

[[record]]
substance = "HIDELDE [TaPep22]"
measurement_label = "Salty"
result_value = 7.21


###

Quick note: these are Cell viability, HEK293T, Data3 numbers for system: human embryonic kidney cells (HEK293T)
Ends that are not written are not given here.
MEASUREMENT_LABEL: Cell viability, HEK293T, Data3

[[record]]
substance = "KNDESVD [TaPep48]"
system = "human embryonic kidney cells (HEK293T)"
result_value = 105.99

[[record]]
substance = "AQSSLS [TaPep40]"
system = "human embryonic kidney cells (HEK293T)"
result_value = 97.29

[[record]]
substance = "LQPSLEH [TaPep59]"
system = "human embryonic kidney cells (HEK293T)"
result_value = 95.11

[[record]]
substance = "PTELESD [TaPep41]"
system = "human embryonic kidney cells (HEK293T)"
result_value = 113.47

[[record]]
substance = "TAEQVA [TaPep33]"
system = "human embryonic kidney cells (HEK293T)"
result_value = 104.01

[[record]]
substance = "KGYEAV [TaPep5]"
system = "human embryonic kidney cells (HEK293T)"
result_value = 95.49

[[record]]
substance = "DFKEELPK [TaPep42]"
system = "human embryonic kidney cells (HEK293T)"
result_value = 104.29

[[record]]
substance = "EEVPITD [TaPep46]"
system = "human embryonic kidney cells (HEK293T)"
result_value = 102.02


###

# Cell viability, HPNE, Data2 annotations
tested on: human pancreatic ductal epithelial cells (HPNE)
Ends that are not written are not given here.
MEASUREMENT_LABEL: Cell viability, HPNE, Data2

[[record]]
substance = "KADGNR [TaPep4]"
result_value = 97.39

[[record]]
substance = "LQPDAGK [TaPep6]"
result_value = 99.55

[[record]]
substance = "EPKVLV [TaPep54]"
result_value = 95.44

[[record]]
substance = "YQAENKH [TaPep14]"
result_value = 103.13

[[record]]
substance = "KNDESVD [TaPep48]"
result_value = 109.32

[[record]]
substance = "AKDEKEL [TaPep1]"
result_value = 92.15

[[record]]
substance = "LWGPVT [TaPep72]"
result_value = 97.84

[[record]]
substance = "VAEDLL [TaPep8]"
result_value = 99.23

[[record]]
substance = "SLEYLP [TaPep35]"
result_value = 118.20

[[record]]
substance = "YDGTPLN [TaPep11]"
result_value = 113.51

[[record]]
substance = "LQDVVE [TaPep24]"
result_value = 92.98

[[record]]
substance = "NGDDEEG [TaPep7]"
result_value = 93.04

[[record]]
substance = "HGGDDLG [TaPep28]"
result_value = 102.04

[[record]]
substance = "TQEVVN [TaPep25]"
result_value = 81.96

[[record]]
substance = "FPEQQD [TaPep16]"
result_value = 113.61

[[record]]
substance = "VARLEA [TaPep9]"
result_value = 93.74

[[record]]
substance = "EEVPITD [TaPep46]"
result_value = 107.82

[[record]]
substance = "TAEQVA [TaPep33]"
result_value = 86.46

[[record]]
substance = "AQSSLS [TaPep40]"
result_value = 109.02

[[record]]
substance = "LQPSLEH [TaPep59]"
result_value = 84.46

[[record]]
substance = "VPDELN [TaPep23]"
result_value = 109.52

[[record]]
substance = "IAVPHEP [TaPep47]"
result_value = 87.25

[[record]]
substance = "LGDDLVK [TaPep19]"
result_value = 114.51

[[record]]
substance = "DQEPVE [TaPep44]"
result_value = 118.30

[[record]]
substance = "PPLENT [TaPep39]"
result_value = 90.95

[[record]]
substance = "STGTIR [TaPep51]"
result_value = 89.05

[[record]]
substance = "KGYEAV [TaPep5]"
result_value = 109.17

[[record]]
substance = "DQKVLA [TaPep3]"
result_value = 98.74

[[record]]
substance = "APEELDA [TaPep36]"
result_value = 111.61

[[record]]
substance = "DFKEELPK [TaPep42]"
result_value = 101.63

[[record]]
substance = "DAELDK [TaPep34]"
result_value = 96.64

[[record]]
substance = "EVGMQE [TaPep56]"
result_value = 91.95

[[record]]
substance = "HIDELDE [TaPep22]"
result_value = 84.66

[[record]]
substance = "FEGDQDA [TaPep18]"
result_value = 89.05

[[record]]
substance = "YAGNAP [TaPep10]"
result_value = 94.47

[[record]]
substance = "FTEELE [TaPep32]"
result_value = 110.72

[[record]]
substance = "AQDDLP [TaPep20]"
result_value = 117.20

[[record]]
substance = "EQPLQA [TaPep21]"
result_value = 87.35

[[record]]
substance = "TIDDELR [TaPep26]"
result_value = 94.94

[[record]]
substance = "AEDNSL [TaPep43]"
result_value = 99.83

[[record]]
substance = "PTELESD [TaPep41]"
result_value = 113.91

[[record]]
substance = "EDGPHGD [TaPep45]"
result_value = 100.73

[[record]]
substance = "EQGEQN [TaPep15]"
result_value = 112.61

[[record]]
substance = "TDPELV [TaPep60]"
result_value = 113.81

[[record]]
substance = "SNDPVA [TaPep71]"
result_value = 82.76

